I'd be grateful if you could share measured Ratio/FWT for these entries.
# measured target: T1, FcRn-p3 fusion protein (human, UniProt P55899 24-297; P61769 21-119)
# T1 construct: baculovirus expressed; coated on ELISA wells; not shown: amino terminal part of bacteriophage p3 protein and CVDE protein
# T1 sequence (P55899 24-297, chain 1 of 2): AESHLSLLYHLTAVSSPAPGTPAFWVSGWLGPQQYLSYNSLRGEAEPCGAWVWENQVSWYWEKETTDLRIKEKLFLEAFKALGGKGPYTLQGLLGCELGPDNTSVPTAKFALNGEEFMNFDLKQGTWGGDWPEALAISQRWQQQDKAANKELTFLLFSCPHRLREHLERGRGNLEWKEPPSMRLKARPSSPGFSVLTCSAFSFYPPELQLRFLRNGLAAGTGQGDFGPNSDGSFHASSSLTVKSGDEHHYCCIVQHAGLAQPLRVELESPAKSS
# T1 sequence (P61769 21-119, chain 2 of 2): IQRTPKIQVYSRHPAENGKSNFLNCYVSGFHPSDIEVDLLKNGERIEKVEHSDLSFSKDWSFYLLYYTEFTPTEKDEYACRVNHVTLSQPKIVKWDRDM
# assay remarks: phage ELISA pH6 (est.)
Answers are plain numbers, in fold.

binder: C5A_20 (other, EU numbering) CPPCPAPELLGGPSVFLFPPKPKDTLMISRTPEVTCVVVDVSHEDPEVKFNWYVDGVEVHNAKTKPREEQYNSTYRVVSVLTVLHQDWLDGKEYKCKVSNKALPAPIEKTISKAKGQPREPQVYTLPPSRDELTKNQVSLTCLVKGFYPSDIAVEWESNGQPENNYKTTPPVLDSDGSFFLYSKLTVDKDRWQQGNVFSCSVMHEALHYHYTQKSLSLSPGK
measured value: 8.4

Entry C3A_08 (other, EU numbering) CPPCPAPELLGGPSVFLFPPKPKDTLMISRTPEVTCVVEDVSHEDPEVKFNWYVDGVEVHNAKTKPREEQYNSTYRVVSVLTVLHQDWLNGKEYKCKVSNKALPAPIEKTISKAKGQPREPQVYTLSPSRDELTKNQVSLTCLVKGFYPSDIVVEWESNGQPENNYKTTPPVLDSDGSFFLYSKLTVDKSRWQQGNVFSCSVMHEALHSHYTQKSLSLSPGK ; Ratio/FWT = 9.7
